Source: patent US20020103123A1

Target: T1, rat Y4 receptor (rat), Q63447
T1 chain: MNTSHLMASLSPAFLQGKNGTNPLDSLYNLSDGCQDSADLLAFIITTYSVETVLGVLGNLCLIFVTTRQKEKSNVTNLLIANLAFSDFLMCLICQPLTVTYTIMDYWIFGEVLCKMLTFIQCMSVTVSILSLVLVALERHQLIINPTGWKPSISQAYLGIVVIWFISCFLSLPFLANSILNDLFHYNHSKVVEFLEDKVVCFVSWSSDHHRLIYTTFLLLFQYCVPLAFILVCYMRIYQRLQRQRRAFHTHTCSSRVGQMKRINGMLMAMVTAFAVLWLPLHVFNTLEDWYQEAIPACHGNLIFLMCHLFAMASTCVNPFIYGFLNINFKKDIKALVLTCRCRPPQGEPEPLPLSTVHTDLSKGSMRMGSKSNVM
Assay: 125I-PYY displacement, COS-7 membranes
Conditions: remark: other sources report otherwise
Ends that are not written are not given here.

{"BINDER": "PAEDLARYYSALRHYINLITRQRY (ends and bridges not checked) [porcine NPY13-36, P01304]", "Ki": "140 nM"}
